- run_description: activity coefficient (dimensionless); of the first substance listed, at infinite dilution; xn = mol fraction of the nth substance listed
- condition_description: 338.15 K; Liquid; Chromatography; x1 = 0
Is activity coefficient at least 5? Then class 1. If not, class 0.

Take a look at these entries with their results.
INSERT INTO assay_data (molecule, label_value) VALUES
  ('c1ccsc1 [thiophene] + CCCC[N+]1(C)CCCCC1.N#C[S-]', 'class 0'),
  ('C#CCCCCCC [1-octyne] + CCCC[N+]1(C)CCCCC1.N#C[S-]', 'class 1'),
  ('CCc1ccccc1 [ethylbenzene] + CCCC[N+]1(C)CCCCC1.N#C[S-]', 'class 1'),
  ('C1CCOC1 [tetrahydrofuran] + CCCC[N+]1(C)CCCCC1.N#C[S-]', 'class 0'),
  ('CCCCCCCC [octane] + CCCC[N+]1(C)CCCCC1.N#C[S-]', 'class 1');

Exam item: Item CO [methanol] + CCCC[N+]1(C)CCCCC1.N#C[S-] with activity coefficient of 5 or above?
Marked response: class 0

Exam item: What do we get for C#CCCCC [1-hexyne] + CCCC[N+]1(C)CCCCC1.N#C[S-] ?
Marked response: class 1

Exam item: What do we get for C1CCCC1 [cyclopentane] + CCCC[N+]1(C)CCCCC1.N#C[S-] ?
Marked response: class 1

Exam item: What do we get for C=CCCCCC [1-heptene] + CCCC[N+]1(C)CCCCC1.N#C[S-] ?
Marked response: class 1

Exam item: What do we get for C#CCCCCC [1-heptyne] + CCCC[N+]1(C)CCCCC1.N#C[S-] ?
Marked response: class 1

###

// values below are reported activity coefficient
- run_description: activity coefficient (dimensionless); of the first substance listed, at infinite dilution; xn = mol fraction of the nth substance listed
- condition_description: 348.15 K; Liquid; Chromatography; x1 = 0

INSERT INTO measurements (compound, measurement_kind, result) VALUES
  ('CCO [ethanol] + CCCC[N+]1(C)CCCCC1.N#C[S-]', 'activity coefficient', 0.618),
  ('CCCCCCCCCC [decane] + CCCC[N+]1(C)CCCCC1.N#C[S-]', 'activity coefficient', 342),
  ('CO [methanol] + CCCC[N+]1(C)CCCCC1.N#C[S-]', 'activity coefficient', 0.371);

Exam item: Consider the compound shown here: C#CCCCCC [1-heptyne] + CCCC[N+]1(C)CCCCC1.N#C[S-] What is its recorded activity coefficient?
Marked response: 9.23

Exam item: What do we get for CCCCCC [hexane] + CCCC[N+]1(C)CCCCC1.N#C[S-] ?
Marked response: 78.5

###

- run_description: activity coefficient (dimensionless); of the first substance listed, at infinite dilution; xn = mol fraction of the nth substance listed
- condition_description: 348.15 K; Liquid; Chromatography; x1 = 0
measurement_kind: activity coefficient
Lab note: jot down the number only; don't add units.

INSERT INTO results (molecule, measurement_kind, numeric_result) VALUES
  ('Cc1ccccc1C [1,2-dimethylbenzene] + CCCC[N+]1(C)CCCCC1.N#C[S-]', 'activity coefficient', 4.24),
  ('Cc1ccccc1 [toluene] + CCCC[N+]1(C)CCCCC1.N#C[S-]', 'activity coefficient', 3.21),
  ('C1CCCCC1 [cyclohexane] + CCCC[N+]1(C)CCCCC1.N#C[S-]', 'activity coefficient', 29.4);

Exam item: Consider the molecule shown here: C1CCCCCC1 [cycloheptane] + CCCC[N+]1(C)CCCCC1.N#C[S-] What is its recorded activity coefficient?
Marked response: 34.6

Exam item: What do we get for c1ccsc1 [thiophene] + CCCC[N+]1(C)CCCCC1.N#C[S-] ?
Marked response: 1.2

Exam item: What do we get for C#CCCCC [1-hexyne] + CCCC[N+]1(C)CCCCC1.N#C[S-] ?
Marked response: 6.19

Exam item: What do we get for c1ccccc1 [benzene] + CCCC[N+]1(C)CCCCC1.N#C[S-] ?
Marked response: 1.97

###

- run_description: activity coefficient (dimensionless); of the first substance listed, at infinite dilution; xn = mol fraction of the nth substance listed
- condition_description: 358.15 K; Liquid; Chromatography; x1 = 0
// values below are reported activity coefficient
Lab note: jot down the number only; don't add units.

Recorded activity coefficient, per entry:
INSERT INTO measurements (compound, numeric_result) VALUES
  ('Cc1cccc(C)c1 [1,3-dimethylbenzene] + CCCC[N+]1(C)CCCCC1.N#C[S-]', 5.28),
  ('C#CCCCC [1-hexyne] + CCCC[N+]1(C)CCCCC1.N#C[S-]', 6.22),
  ('CO [methanol] + CCCC[N+]1(C)CCCCC1.N#C[S-]', 0.373),
  ('c1ccsc1 [thiophene] + CCCC[N+]1(C)CCCCC1.N#C[S-]', 1.23),
  ('C1CCCCCC1 [cycloheptane] + CCCC[N+]1(C)CCCCC1.N#C[S-]', 32.7);

Exam item: Consider the compound shown here: C=CCCCCCC [oct-1-ene] + CCCC[N+]1(C)CCCCC1.N#C[S-] What is its recorded activity coefficient?
Marked response: 67.4

Exam item: What do we get for CCCCCCCCC [nonane] + CCCC[N+]1(C)CCCCC1.N#C[S-] ?
Marked response: 214

Exam item: What do we get for C=CCCCCC [1-heptene] + CCCC[N+]1(C)CCCCC1.N#C[S-] ?
Marked response: 45.7

Exam item: What do we get for CCCCCCC [heptane] + CCCC[N+]1(C)CCCCC1.N#C[S-] ?
Marked response: 102

Exam item: What do we get for Cc1ccccc1C [1,2-dimethylbenzene] + CCCC[N+]1(C)CCCCC1.N#C[S-] ?
Marked response: 4.26

###

// values below are reported activity coefficient
- run_description: activity coefficient (dimensionless); of the first substance listed, at infinite dilution; xn = mol fraction of the nth substance listed
- condition_description: 358.15 K; Liquid; Chromatography; x1 = 0
Lab note: jot down the number only; don't add units.

Recorded activity coefficient, per entry:
INSERT INTO results (compound, numeric_result) VALUES
  ('C1CCOC1 [tetrahydrofuran] + CCCC[N+]1(C)CCCCC1.N#C[S-]', 2.38),
  ('C1CCCCCCC1 [cyclooctane] + CCCC[N+]1(C)CCCCC1.N#C[S-]', 42.1),
  ('C#CCCCCC [1-heptyne] + CCCC[N+]1(C)CCCCC1.N#C[S-]', 9.28),
  ('C1CCCC1 [cyclopentane] + CCCC[N+]1(C)CCCCC1.N#C[S-]', 18.9),
  ('C1CCCCC1 [cyclohexane] + CCCC[N+]1(C)CCCCC1.N#C[S-]', 27.5);

Exam item: Consider the compound shown here: O [water] + CCCC[N+]1(C)CCCCC1.N#C[S-] What is its recorded activity coefficient?
Marked response: 0.348

Exam item: What do we get for CCCCCCCC [octane] + CCCC[N+]1(C)CCCCC1.N#C[S-] ?
Marked response: 150

Exam item: What do we get for C#CCCCCCC [1-octyne] + CCCC[N+]1(C)CCCCC1.N#C[S-] ?
Marked response: 13.7

Exam item: What do we get for Cc1ccc(C)cc1 [1,4-dimethylbenzene] + CCCC[N+]1(C)CCCCC1.N#C[S-] ?
Marked response: 5.13

Exam item: What do we get for CCCCCC [hexane] + CCCC[N+]1(C)CCCCC1.N#C[S-] ?
Marked response: 68.5

###

- run_description: activity coefficient (dimensionless); of the first substance listed, at infinite dilution; xn = mol fraction of the nth substance listed
- condition_description: 318.15 K; Liquid; Chromatography; x1 = 0
measurement_kind: activity coefficient
Lab note: jot down the number only; don't add units.

Recorded activity coefficient, per entry:
INSERT INTO assay_data (compound, measurement_kind, numeric_result) VALUES
  ('C#CCCCCCC [1-octyne] + CCCC[N+]1(C)CCCCC1.N#C[S-]', 'activity coefficient', 13.6),
  ('C1CCCCCCC1 [cyclooctane] + CCCC[N+]1(C)CCCCC1.N#C[S-]', 'activity coefficient', 60),
  ('C1CCCC1 [cyclopentane] + CCCC[N+]1(C)CCCCC1.N#C[S-]', 'activity coefficient', 27.5),
  ('C#CCCCC [1-hexyne] + CCCC[N+]1(C)CCCCC1.N#C[S-]', 'activity coefficient', 6.07),
  ('CCCCCCCC [octane] + CCCC[N+]1(C)CCCCC1.N#C[S-]', 'activity coefficient', 236);

Exam item: Consider the compound shown here: C=CCCCCCC [oct-1-ene] + CCCC[N+]1(C)CCCCC1.N#C[S-] What is its recorded activity coefficient?
Marked response: 90.6

Exam item: What do we get for C=CCCCCC [1-heptene] + CCCC[N+]1(C)CCCCC1.N#C[S-] ?
Marked response: 60.3

Exam item: What do we get for C1CCCCC1 [cyclohexane] + CCCC[N+]1(C)CCCCC1.N#C[S-] ?
Marked response: 39.8

Exam item: What do we get for c1ccsc1 [thiophene] + CCCC[N+]1(C)CCCCC1.N#C[S-] ?
Marked response: 1.1

Exam item: What do we get for CCCCCCCCCC [decane] + CCCC[N+]1(C)CCCCC1.N#C[S-] ?
Marked response: 487

Entry source: the NIST ThermoML archive (doi:10.1021/je101008y)
